Values from PubChem BioAssay (NCATS)

Answer each item with its documented activity change, negative = inhibition.
- Procedure Details: qHTS Assay for Lipid Storage Modulators (AID 1519); for activity change, negative = inhibition: % is set by controls: 0 for no effect and ±100 for the full control effect
- Settings: Drosophila S3 cells, BODIPY lipid droplet/cell ratio, laser cytometry; at 57.5 µM (top of the series); cells loaded with oleic acid
Results filed as inconclusive are left out.
State just the number; it will be interpreted in %.

// recorded activity change, negative = inhibition for O=c1c(CCc2ccccc2)nc2cnc(N3CCOCC3)nc2n1C[C@H]1CCCO1 : -15.5

// recorded activity change, negative = inhibition for CN1CCCC2(CCN(C(=O)c3cccc(F)c3)CC2)C1 : 0.413

// recorded activity change, negative = inhibition for COc1ccccc1-c1cncnc1NCc1cccc(C)c1 : 10.8

// recorded activity change, negative = inhibition for CN(Cc1ccco1)c1nc(-c2ccccc2Cl)nc2ccccc12 : 11.9

// recorded activity change, negative = inhibition for CC(C)CN1CC[C@@]2(CCCN(C(=O)c3ccco3)C2)C1 : 3.8

// recorded activity change, negative = inhibition for CC(C)CN1CC[C@@]2(CCCN(C(=O)c3cc(C(F)(F)F)cc(C(F)(F)F)c3)C2)C1 : 1.55

// recorded activity change, negative = inhibition for N#Cc1ccc(CN2CCC3(CC2)CCN(C(=O)c2ccco2)CC3)cc1 : 1.05

// recorded activity change, negative = inhibition for Nc1ncnc2c1nc(Br)n2C1O[C@H]2COP(=O)(O)O[C@@H]2C1O (stereo partly specified) : 0.429

// recorded activity change, negative = inhibition for COc1ccccc1CN1CCCC2(CCN(S(=O)(=O)c3ccccc3)CC2)C1 : 0.969

// recorded activity change, negative = inhibition for CNc1nc(-c2ccccc2OC)nc2ccccc12 : 2.04

// recorded activity change, negative = inhibition for COc1ccccc1CN1CCC2(CC1)CCN(S(=O)(=O)c1ccccc1)CC2 : 0.93

* * *

- Procedure Details: qHTS Assay for Lipid Storage Modulators (AID 1519)
- Settings: Drosophila S3 cells, BODIPY lipid droplet/cell ratio, laser cytometry; measured here: cell count channel max response; cells loaded with oleic acid
Inconclusive results are not listed.
Property Name: max response (%)
State just the number; it will be interpreted in %.

// recorded max response for CN(Cc1ccco1)c1nc(-c2cccc(C#N)c2)nc2ccccc12 : 1.16

// recorded max response for CN(C)[C@@H]1C(=O)C(C(N)=O)=C(O)[C@]2(O)C(=O)C3=C(O)c4c(O)ccc(Cl)c4[C@H](O)[C@H]3C[C@@H]12 : 4.73

// recorded max response for C[C@@H](C(=O)O)c1cccc(C(=O)c2ccccc2)c1 : 11.1

// recorded max response for Cc1cnc(CNc2ccnc(-c3ccc(N(C)C)cc3)n2)cn1 : -9.25

// recorded max response for CS(=O)(=O)Nc1cccc(-c2nccc(-n3ccnc3)n2)c1 : 1.42

* * *

- Tested On: Cytochrome P450 2D6 (Homo sapiens) (UniProt P10635)
- Sequence (P10635 whole entry, looked up): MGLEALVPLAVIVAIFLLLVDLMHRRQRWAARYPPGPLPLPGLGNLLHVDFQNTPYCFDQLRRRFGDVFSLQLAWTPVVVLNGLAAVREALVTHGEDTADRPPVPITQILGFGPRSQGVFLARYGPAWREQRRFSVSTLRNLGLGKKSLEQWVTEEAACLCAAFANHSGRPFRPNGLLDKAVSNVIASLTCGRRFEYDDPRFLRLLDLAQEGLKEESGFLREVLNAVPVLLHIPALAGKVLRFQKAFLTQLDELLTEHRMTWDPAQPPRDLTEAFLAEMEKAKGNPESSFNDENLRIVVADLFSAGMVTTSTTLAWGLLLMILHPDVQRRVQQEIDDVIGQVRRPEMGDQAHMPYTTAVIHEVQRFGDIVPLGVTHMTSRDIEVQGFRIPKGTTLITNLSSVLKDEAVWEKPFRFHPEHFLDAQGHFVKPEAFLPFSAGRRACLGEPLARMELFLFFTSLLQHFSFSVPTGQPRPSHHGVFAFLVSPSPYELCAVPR
- Procedure Details: qHTS Assay for Inhibitors and Substrates of Cytochrome P450 2D6 (AID 891); note: nearly all actives have a fitted effect of over 60% in size; note: potency is the fitted concentration of half-maximal effect
- Settings: recombinant CYP2D6, luciferin-ME EGE luminescence; series mostly up to 57.1 µM
Inconclusive results are not listed. The source made the active and inactive calls. The call rests on the fitted dose curve; in most records, active means well fitted inhibition curve with a large enough effect; inconclusive means small, poorly fitted or top-dose-only effect; inactive means no such curve, though single readings can be large or run the other way.
Property Name: Potency

Example entries begin here.
COc1cccc(-c2nccc(NCc3ccccc3OC)n2)c1 : 0.398 µM (active)
CN(C)Cc1ccccc1-c1ccc2ncnc(N(C)Cc3ccco3)c2c1 : 2 µM (active)
CC(C)NC(=O)N1CC2(CCN(C(=O)c3cc(C(F)(F)F)cc(C(F)(F)F)c3)CC2)C1 : 0.251 µM (active)
Cn1cccc1C(=O)N1CCC2(CCCN(Cc3ccncc3)C2)CC1 : 7.94 µM (active)
O=C(O)/C=C\c1ccc(O)c(O)c1 : inactive

// recorded Potency for CC(C)CN1CCC2(CC1)CCN(C(=O)c1ccncc1)CC2 : 3.98 µM (active)

// recorded Potency for O=C(c1cnccn1)N1CCC2(CCCN(Cc3nccs3)C2)CC1 : 7.94 µM (active)

// recorded Potency for COCC(=O)N1CCC2(CCN(Cc3ccncc3)CC2)CC1 : 6.31 µM (active)

// recorded Potency for COc1ccc(C(=O)N2CCC[C@@]3(CCN(Cc4ccccc4)C3)C2)cc1 : 7.94 µM (active)

// recorded Potency for O=C(c1cccc(F)c1)N1CCC2(CC1)CCN(C(c1ccccc1)c1ccccc1)CC2 : 3.16 µM (active)

* * *

- Tested On: Cytochrome P450 2C19 (Homo sapiens)
- Procedure Details: qHTS Assay for Inhibitors and Substrates of Cytochrome P450 2C19 (AID 899); note: nearly all actives have a fitted effect of over 60% in size
- Settings: recombinant CYP2C19, luciferin-H EGE luminescence; series mostly up to 57.1 µM
- Experimental: NIH Molecular Libraries Screening Centers Network [MLSCN] NIH Chemical Genomics Center [NCGC] The P450 gene superfamily is involved in the metabolism and clearance of xenobiotics. […] The luciferin is then measured by luminescence after the addition of a luciferase detection reagent. […] Inhibitors and some substrates limit the production of luciferin, and decrease measured luminescence. […]
Results filed as inconclusive are left out. Active and inactive are the calls of the source. Calls follow the shape of the dose curve; as a rule, active = well fitted inhibition curve with a large enough effect; inconclusive = small, poorly fitted or top-dose-only effect; inactive = no such curve, though single readings can be large or run the other way.
One label from this list, please: 1 = active, 0 = inactive

Hi, do you know how COc1ccc(CNc2ncncc2-c2ccccc2C)c(OC)c1 came out in this test?
1

Hi, do you know how CN(Cc1ccco1)c1ccnc(-c2cccnc2)n1 came out in this test?
1

Hi, do you know how COc1ncc2ncc(=O)n(Cc3ccc(F)cc3)c2n1 came out in this test?
1

Hi, do you know how CN(C)C(=O)c1ccc(-c2cncnc2NCc2cccnc2)cc1 came out in this test?
1

Hi, do you know how COc1ccccc1CNc1nc(-c2cccc(C#N)c2)nc2ccccc12 came out in this test?
1

Hi, do you know how FC(F)(F)c1ccccc1-c1ccc2ncnc(N3CCOCC3)c2c1 came out in this test?
1

Hi, do you know how O=C(c1ccncc1)N1CCC2(CC1)CCN(c1ncccn1)CC2 came out in this test?
1

Hi, do you know how COc1cccc(-c2nccc(NCc3ccccc3OC)n2)c1 came out in this test?
1

Hi, do you know how COc1cccc(-c2cncnc2NCc2cccs2)c1 came out in this test?
1

Hi, do you know how COc1ccc2[nH]cc(CCNc3cc(-c4ccccc4C)ncn3)c2c1 came out in this test?
1

Hi, do you know how CN(C)c1ncc2nc(-c3cc(F)cc(F)c3)c(=O)n(Cc3cccs3)c2n1 came out in this test?
0

Hi, do you know how N#Cc1cccc(-c2cc(-n3ccnc3)ncn2)c1 came out in this test?
1

Hi, do you know how O=C(c1cccc(F)c1)N1CCC2(CC1)CN(c1ccncc1)C2 came out in this test?
1

Hi, do you know how COc1cccc(-c2cc(NCc3ccccc3OC)ncn2)c1 came out in this test?
1

Hi, do you know how COCC(=O)N1CCC2(CCN(Cc3ccncc3)CC2)CC1 came out in this test?
1

Hi, do you know how Cc1noc(C)c1C(=O)N1CCC[C@@]2(CCN(Cc3cc(C(F)(F)F)cc(C(F)(F)F)c3)C2)C1 came out in this test?
0

Hi, do you know how COc1cccc(-c2nc(Nc3ccncc3)c3ccccc3n2)c1 came out in this test?
1

Hi, do you know how COc1cccc(-c2cncnc2NCc2cccc(C)c2)c1 came out in this test?
1

Hi, do you know how Cc1ccccc1-c1cc(N(C)Cc2ccco2)ncn1 came out in this test?
1

Hi, do you know how COc1ccc2[nH]cc(CCNc3ncnc4ccc(-c5ccc(C(=O)N(C)C)cc5)cc34)c2c1 came out in this test?
1

Hi, do you know how COc1ccc2[nH]cc(CCNc3ncnc4ccc(-c5c(C)noc5C)cc34)c2c1 came out in this test?
1

Hi, do you know how CC(=O)N1CCC2(CCCN(Cc3nccs3)C2)CC1 came out in this test?
1

Hi, do you know how Cn1cccc1C(=O)N1CCC2(CCCN(c3ncccn3)C2)CC1 came out in this test?
0

Hi, do you know how COc1ccccc1-c1cncnc1NCc1cccc(C)c1 came out in this test?
1

* * *

- Tested On: Cytochrome P450 2D6 (Homo sapiens) (UniProt P10635)
- Procedure Details: qHTS Assay for Inhibitors and Substrates of Cytochrome P450 2D6 (AID 891); note: nearly all actives have a fitted effect of over 60% in size
- Settings: recombinant CYP2D6, luciferin-ME EGE luminescence; series mostly up to 57.1 µM
Results filed as inconclusive are left out. The source made the active and inactive calls. Calls follow the shape of the dose curve; as a rule, active = well fitted inhibition curve with a large enough effect; inconclusive = small, poorly fitted or top-dose-only effect; inactive = no such curve, though single readings can be large or run the other way.
One label from this list, please: active, inactive

Hi, do you know how COc1ccc(CNc2ncncc2-c2ccc3c(c2)OCO3)c(OC)c1 came out in this test?
active

Hi, do you know how c1csc(CNc2nc(-c3ccoc3)nc3ccccc23)c1 came out in this test?
active

Hi, do you know how CC(=O)[C@@H]1CC[C@@H]2[C@@H]3CCC4=CC(=O)CC[C@@]4(C)[C@H]3CC[C@]21C came out in this test?
inactive

Hi, do you know how COc1ccccc1CNc1ccnc(-c2ccccc2OC)n1 came out in this test?
active

Hi, do you know how CN(C)Cc1ccccc1-c1cc(-n2ccnc2)ncn1 came out in this test?
active

Hi, do you know how COc1ccc2[nH]cc(CCNc3ncncc3-c3cccc(NS(C)(=O)=O)c3)c2c1 came out in this test?
active

Hi, do you know how COc1ccccc1CN1CCC2(CC1)CCN(S(=O)(=O)c1ccccc1)CC2 came out in this test?
active

Hi, do you know how COc1ccc(CNc2ncncc2-c2ccccc2C(F)(F)F)c(OC)c1 came out in this test?
active

Hi, do you know how CN(C)c1ccc(-c2nc(NCc3cccnc3)c3ccccc3n2)cc1 came out in this test?
active

Hi, do you know how COc1ccc2[nH]cc(CCNc3nc(-c4ccc(N(C)C)cc4)nc4ccccc34)c2c1 came out in this test?
active

Hi, do you know how COc1cc(=O)n(C)c2c(OC[C@@H](O)C(C)(C)O)cccc12 came out in this test?
inactive
